assay comment: Toxicity liver stage against HepG2, at 10uM
Format: cell-based
Set-up: test concentration 10 uM, cell line HepG2-A16-CD81EGFP
condition: human, HepG2-A16-CD81EGFP cells; read-out: INHIBITION
Please respond with reported cytotoxicity at 10 µM for every item in the list.
Give bare numbers, in %.

# compound, measurement label, observed measurement
measured = [
    ("CCn1nc(C)c(CNC(=O)NCC(C)(O)c2ccco2)c1C (stereo unspecified)", "cytotoxicity at 10 µM", -10.8),
    ("c1coc(CN2CCCn3c(nnc3Cn3cccc3)C2)c1", "cytotoxicity at 10 µM", -0.314),
    ("CC(C)(O)CCc1ccc(C(=O)NCC2CCCOC2)cc1 (stereo unspecified)", "cytotoxicity at 10 µM", 0.445),
    ("Cc1ccoc1C(=O)NCC(c1ccccc1Cl)N1CCOCC1 (stereo unspecified)", "cytotoxicity at 10 µM", 8.21),
    ("O=c1[nH]c2nc(N3CCSCC3)ncc2c(=O)n1-c1ccc(F)cc1", "cytotoxicity at 10 µM", 9.82),
]

State recorded cytotoxicity at 10 µM for all listed compounds.
1. CCC1(CO)CCCN(Cc2nccn2Cc2ccccc2)C1 (stereo unspecified)
2. CSc1ncc(C(=O)N2C[C@@H]3CC[C@H]2CN(c2ncccn2)C3)cn1
3. COc1cc(N2C[C@H](OCc3cccnc3)[C@H]3OCCC[C@H]32)ncn1
4. CC1=N[C@@]2(CC[C@@H]3CN(Cc4ccccc4F)C[C@@H]32)C(=O)N1CC1CC1
5. CN(C)C(C(=O)NCC1(O)CCCCC1)c1c(F)cccc1F (stereo unspecified)

Result:
1: -7.35; 2: 1.26; 3: 4.13; 4: 1.47; 5: -5.52

Problem: Recorded cytotoxicity at 10 µM of NC(=O)c1cnn2c(C3CCCN(C4CCOCC4)C3)ccnc12 (stereo unspecified) , please.
Result: 4.34
